Assay: in vitro
Conditions: human, uninfected MT-4 cells, CC50 (nM), same protocol as Test A, CellTiter-Glo
measurementKind: CC50 at 5 days (nM)
Record the value in nM, omitting the unit from your answer.

Request: Find the measured CC50 at 5 days of `N#Cc1cn(CC(=O)N[C@@H](Cc2cc(F)cc(F)c2)c2ncccc2-c2ccc(F)c(C(N)=O)c2)nc1C(F)(F)F` and report it.
Result: 21900

Request: Find the measured CC50 at 5 days of `NC(=O)c1cc(-c2cccnc2[C@H](Cc2cc(F)cc(F)c2)NC(=O)Cn2nc(C(F)(F)F)cc2C2CC2)ccc1F` and report it.
Result: 24500

Request: Find the measured CC50 at 5 days of CC(C)CC(C(=O)N[C@@H](Cc1cc(F)cc(F)c1)c1ncccc1-c1ccc(F)c(C(N)=O)c1)n1ccc(C(F)(F)F)n1 (single isomer, unassigned) [Example 581D] and report it.
Result: 10600

Request: Find the measured CC50 at 5 days of `O=C(Cc1c[nH]c2ccc(F)cc12)N[C@@H](Cc1cc(F)cc(F)c1)c1ncccc1-c1ccc(-c2ccccc2)cc1` and report it.
Result: 10300
